Test: Pharmacokinetics in patients after multiple administrations
Type: in vivo, human
Details: human, serum, oral, 200 mg, mean ± SD
QUANTITY MEASURED: half-life (h)
Give your result in h as a bare value.

Task item: Query (compound): COc1ncc(-c2nc(N3CCOCC3)nc3c(CN4CCC(C(C)(C)O)CC4)cc(F)cc23)cc1NS(C)(=O)=O ; field requested: half-life
Reply: 17.5

---

Assay: Pharmacokinetics in patients after a single dose
Assay type: in vivo, human
Settings: human, serum, oral; single dose, 200 mg, mean ± SD
QUANTITY MEASURED: Tmax (h)
Provide the reading as a plain figure in h.

Task item: Which Tmax value belongs to COc1ncc(-c2nc(N3CCOCC3)nc3c(CN4CCC(C(C)(C)O)CC4)cc(F)cc23)cc1NS(C)(=O)=O ?
Reply: 9.4

---

Assay: Pharmacokinetics in patients after a single dose
Format: in vivo, human
Conditions: human, serum, oral; single dose, 40 mg, mean ± SD
QUANTITY MEASURED: Cmax (ng/mL)
The response must be a number in ng/mL with no trailing unit.

Task item: Report Cmax for COc1ncc(-c2nc(N3CCOCC3)nc3c(CN4CCC(C(C)(C)O)CC4)cc(F)cc23)cc1NS(C)(=O)=O [YY-20394] please.
Reply: 148

---

Experiment: Pharmacokinetics in patients after a single dose
Format: in vivo, human
Settings: human, serum, oral; single dose, 200 mg, mean ± SD
QUANTITY MEASURED: half-life (h)
API: value field is a number in h; no unit string.

Task item: Endpoint output: half-life of COc1ncc(-c2nc(N3CCOCC3)nc3c(CN4CCC(C(C)(C)O)CC4)cc(F)cc23)cc1NS(C)(=O)=O . Value?
Reply: 16

---

Assay: Pharmacokinetics in patients after multiple administrations
Assay type: in vivo, human
Conditions: human, serum, oral, 200 mg, mean ± SD, read-out: MRT0→t
QUANTITY MEASURED: MRT last (h)
// return numeric value only (unit: h, not printed)

Task item: I have this compound here, COc1ncc(-c2nc(N3CCOCC3)nc3c(CN4CCC(C(C)(C)O)CC4)cc(F)cc23)cc1NS(C)(=O)=O [YY-20394] , and I need its recorded MRT last.
Reply: 25.3

---

Experiment: Pharmacokinetics in patients after multiple administrations
Format: in vivo, human
Details: human, serum, oral, 80 mg, mean ± SD
QUANTITY MEASURED: AUC(0-inf) (µg·h/mL)
Give your result in µg·h/mL as a bare value.

Task item: Which AUC(0-inf) reading was recorded for the molecule COc1ncc(-c2nc(N3CCOCC3)nc3c(CN4CCC(C(C)(C)O)CC4)cc(F)cc23)cc1NS(C)(=O)=O ?
Reply: 16.6

---

Test: Pharmacokinetics in patients after a single dose
Format: in vivo, human
Settings: human, serum, oral; single dose, 80 mg, mean ± SD; read-out: MRT0→t
QUANTITY MEASURED: MRT last
Give me the value, and tack the unit on after it.

Task item: What does the data say about its MRT last? Entry: COc1ncc(-c2nc(N3CCOCC3)nc3c(CN4CCC(C(C)(C)O)CC4)cc(F)cc23)cc1NS(C)(=O)=O [YY-20394]
Reply: 18.6 h

---

Assay: Pharmacokinetics in patients after a single dose
Assay type: in vivo, human
Conditions: human, serum, oral; single dose, 40 mg, mean ± SD
QUANTITY MEASURED: half-life
Returns: string containing the numeric result and its unit.

Task item: Would you mind telling me what half-life value was observed for COc1ncc(-c2nc(N3CCOCC3)nc3c(CN4CCC(C(C)(C)O)CC4)cc(F)cc23)cc1NS(C)(=O)=O ?
Reply: 1070 min

---

Assay: Pharmacokinetics in patients after multiple administrations
Assay type: in vivo, human
Conditions: human, serum, oral, 20 mg, mean
QUANTITY MEASURED: AUC(0-inf) (ng·h/mL)
Field format: number, assumed ng·h/mL, no unit text.

Task item: Request the reported AUC(0-inf) associated with COc1ncc(-c2nc(N3CCOCC3)nc3c(CN4CCC(C(C)(C)O)CC4)cc(F)cc23)cc1NS(C)(=O)=O
Reply: 4010

---

Test: Pharmacokinetics in patients after multiple administrations
Type: in vivo, human
Details: human, serum, oral, 140 mg, mean ± SD
QUANTITY MEASURED: AUC(0-t) (ng·h/mL)
API: value field is a number in ng·h/mL; no unit string.

Task item: What measured AUC(0-t) goes with COc1ncc(-c2nc(N3CCOCC3)nc3c(CN4CCC(C(C)(C)O)CC4)cc(F)cc23)cc1NS(C)(=O)=O ?
Reply: 15400

---

Assay: Pharmacokinetics in patients after a single dose
Assay type: in vivo, human
Details: human, serum, oral; single dose, 80 mg, mean ± SD; read-out: MRT0→∞
Excerpt: Additional File 5: Table S3. Mean pharmacokinetic parameters of patients after a single dose in each dosage group
QUANTITY MEASURED: MRT inf (h)
Just the number please, in h, no unit attached.

Task item: What value of MRT inf has been recorded for this entry: COc1ncc(-c2nc(N3CCOCC3)nc3c(CN4CCC(C(C)(C)O)CC4)cc(F)cc23)cc1NS(C)(=O)=O
Reply: 22.7

---

Test: Pharmacokinetics in patients after multiple administrations
Type: in vivo, human
Conditions: human, serum, oral, 80 mg, mean ± SD, read-out: MRT0→t
QUANTITY MEASURED: MRT last (h)
API: value field is a number in h; no unit string.

Task item: Requested field: MRT last. Item: COc1ncc(-c2nc(N3CCOCC3)nc3c(CN4CCC(C(C)(C)O)CC4)cc(F)cc23)cc1NS(C)(=O)=O
Reply: 36.4

---

Experiment: Pharmacokinetics in patients after multiple administrations
Assay type: in vivo, human
Settings: human, serum, oral, 200 mg, mean ± SD
QUANTITY MEASURED: AUC(0-t) (ng·h/mL)
Give a bare numeral; the unit ng·h/mL is implied.

Task item: I am curious: what AUC(0-t) value has been reported for COc1ncc(-c2nc(N3CCOCC3)nc3c(CN4CCC(C(C)(C)O)CC4)cc(F)cc23)cc1NS(C)(=O)=O [YY-20394] ?
Reply: 22000

---

Assay: Pharmacokinetics in patients after a single dose
Type: in vivo, human
Conditions: human, serum, oral; single dose, 200 mg, mean ± SD
QUANTITY MEASURED: Cmax
Answer format reminder: number followed by unit.

Task item: For the compound COc1ncc(-c2nc(N3CCOCC3)nc3c(CN4CCC(C(C)(C)O)CC4)cc(F)cc23)cc1NS(C)(=O)=O , what Cmax is on record?
Reply: 641 ng/mL

---

Test: Pharmacokinetics in patients after multiple administrations
Type: in vivo, human
Details: human, serum, oral, 140 mg, mean ± SD
QUANTITY MEASURED: Cmax (ng/mL)
Output spec: scalar in ng/mL, unitless text.

Task item: Can you look up the measured Cmax of COc1ncc(-c2nc(N3CCOCC3)nc3c(CN4CCC(C(C)(C)O)CC4)cc(F)cc23)cc1NS(C)(=O)=O for me?
Reply: 1190

---

Molecular target: PI3Kδ (Homo sapiens, UniProt O00329)
Sequence (O00329 whole entry): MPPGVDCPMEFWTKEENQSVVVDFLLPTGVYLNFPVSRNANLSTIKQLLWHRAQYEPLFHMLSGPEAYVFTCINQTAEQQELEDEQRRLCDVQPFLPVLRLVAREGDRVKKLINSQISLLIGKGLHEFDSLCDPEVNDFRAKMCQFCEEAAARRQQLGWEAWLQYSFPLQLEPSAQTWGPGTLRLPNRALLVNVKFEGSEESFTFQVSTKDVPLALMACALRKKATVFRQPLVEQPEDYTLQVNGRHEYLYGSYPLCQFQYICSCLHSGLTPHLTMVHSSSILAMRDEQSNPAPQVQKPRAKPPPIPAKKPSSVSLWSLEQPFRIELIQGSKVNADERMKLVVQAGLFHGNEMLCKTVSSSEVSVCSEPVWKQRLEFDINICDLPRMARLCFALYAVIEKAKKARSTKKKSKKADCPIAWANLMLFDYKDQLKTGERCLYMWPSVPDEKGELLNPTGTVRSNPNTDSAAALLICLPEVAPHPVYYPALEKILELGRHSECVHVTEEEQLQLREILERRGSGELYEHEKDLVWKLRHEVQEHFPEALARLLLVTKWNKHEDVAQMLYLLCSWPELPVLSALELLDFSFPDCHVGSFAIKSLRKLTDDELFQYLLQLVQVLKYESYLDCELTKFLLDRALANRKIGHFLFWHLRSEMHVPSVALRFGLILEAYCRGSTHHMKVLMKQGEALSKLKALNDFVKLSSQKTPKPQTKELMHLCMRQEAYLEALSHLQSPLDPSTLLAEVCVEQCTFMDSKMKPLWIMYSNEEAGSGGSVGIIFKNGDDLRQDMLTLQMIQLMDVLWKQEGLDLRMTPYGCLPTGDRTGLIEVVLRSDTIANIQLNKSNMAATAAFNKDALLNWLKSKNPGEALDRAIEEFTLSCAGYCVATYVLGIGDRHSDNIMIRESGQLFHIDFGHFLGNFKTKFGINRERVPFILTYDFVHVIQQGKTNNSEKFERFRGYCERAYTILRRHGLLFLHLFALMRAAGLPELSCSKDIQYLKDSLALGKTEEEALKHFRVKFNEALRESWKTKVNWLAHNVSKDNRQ
Sequence (P27986 whole entry partner): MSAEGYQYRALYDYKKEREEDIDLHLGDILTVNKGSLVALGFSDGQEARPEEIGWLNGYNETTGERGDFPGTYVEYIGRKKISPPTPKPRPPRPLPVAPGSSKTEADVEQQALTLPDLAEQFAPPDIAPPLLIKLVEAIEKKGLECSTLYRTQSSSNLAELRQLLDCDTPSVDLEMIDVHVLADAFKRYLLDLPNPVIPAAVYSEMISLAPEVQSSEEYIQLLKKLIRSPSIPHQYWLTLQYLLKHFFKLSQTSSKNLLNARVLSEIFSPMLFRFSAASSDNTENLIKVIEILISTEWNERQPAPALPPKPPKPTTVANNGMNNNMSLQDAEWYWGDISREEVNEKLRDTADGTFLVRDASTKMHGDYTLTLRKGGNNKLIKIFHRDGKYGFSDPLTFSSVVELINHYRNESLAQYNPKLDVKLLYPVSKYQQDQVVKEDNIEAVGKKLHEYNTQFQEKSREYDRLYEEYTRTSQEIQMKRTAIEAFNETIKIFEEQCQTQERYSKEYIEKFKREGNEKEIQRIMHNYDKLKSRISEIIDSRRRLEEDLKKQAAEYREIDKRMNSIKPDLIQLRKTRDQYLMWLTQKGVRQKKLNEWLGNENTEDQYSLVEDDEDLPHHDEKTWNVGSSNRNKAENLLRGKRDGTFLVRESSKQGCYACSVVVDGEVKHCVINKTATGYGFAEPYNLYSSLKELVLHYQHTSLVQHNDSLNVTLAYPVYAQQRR
QUANTITY MEASURED: pIC50
Please keep in mind that pIC50 is minus log10 of the molar concentration; only the number is needed.

Task item: Which pIC50 value is on record for COc1ncc(-c2nc(N3CCOCC3)nc3c(CN4CCC(C(C)(C)O)CC4)cc(F)cc23)cc1NS(C)(=O)=O ?
Reply: 8.34

---

Experiment: Pharmacokinetics in patients after a single dose
Format: in vivo, human
Conditions: human, serum, oral; single dose, 20 mg, mean
QUANTITY MEASURED: Tmax (h)
// note: answer is a bare numeric in h

Task item: What measured Tmax goes with COc1ncc(-c2nc(N3CCOCC3)nc3c(CN4CCC(C(C)(C)O)CC4)cc(F)cc23)cc1NS(C)(=O)=O ?
Reply: 4

---

Test: Pharmacokinetics in patients after a single dose
Format: in vivo, human
Conditions: human, serum, oral; single dose, 20 mg, mean; read-out: MRT0→t
QUANTITY MEASURED: MRT last (h)
Number in h, nothing else.

Task item: Form field: reported MRT last of COc1ncc(-c2nc(N3CCOCC3)nc3c(CN4CCC(C(C)(C)O)CC4)cc(F)cc23)cc1NS(C)(=O)=O
Reply: 25

---

Experiment: Pharmacokinetics in patients after multiple administrations
Format: in vivo, human
Details: human, serum, oral, 40 mg, mean ± SD
QUANTITY MEASURED: Tmax (h)
Output spec: scalar in h, unitless text.

Task item: Given COc1ncc(-c2nc(N3CCOCC3)nc3c(CN4CCC(C(C)(C)O)CC4)cc(F)cc23)cc1NS(C)(=O)=O [YY-20394] , state its recorded Tmax.
Reply: 2.7

---

Assay: Pharmacokinetics in patients after a single dose
Assay type: in vivo, human
Details: human, serum, oral; single dose, 20 mg, mean; read-out: MRT0→∞
Source text: Additional File 5: Table S3. Mean pharmacokinetic parameters of patients after a single dose in each dosage group
QUANTITY MEASURED: MRT inf (h)
Form entry: value (h) — number only.

Task item: Reported MRT inf, molecule COc1ncc(-c2nc(N3CCOCC3)nc3c(CN4CCC(C(C)(C)O)CC4)cc(F)cc23)cc1NS(C)(=O)=O : ____
Reply: 40.7
